# System: rats with stress-induced ulcer
# EXPERIMENT SUMMARY: Restraint and water immersion stress ulcer test in rats (Takagi et al.)
# Type: in vivo, rat (Sprague-Dawley, male)
# TEST CONDITIONS: Table 2, oral, 100 mg/kg, 16 h immersion
Exercise: state measured ulcer index (means ± S.E.) for each of the molecules provided.
Use mm as the unit, but write only the number.

Problem: Sample Cc1ccc(Nc2cc(Cl)ccc2C(=O)O)c(C(=O)O)c1 — what was its ulcer index (means ± S.E.)?
Solution: 1.7

Problem: Sample O=C(O)c1ccc(Cl)cc1Nc1cc(Cl)ccc1C(=O)O — what was its ulcer index (means ± S.E.)?
Solution: 9.4

Problem: Sample Cc1c(Cl)ccc(C(=O)O)c1Nc1ccccc1C(=O)O — what was its ulcer index (means ± S.E.)?
Solution: 1.8

Problem: Sample Cc1ccc(C(=O)O)c(Nc2ccccc2C(=O)O)c1 — what was its ulcer index (means ± S.E.)?
Solution: 1.5

---

# Test system: ulcers developed in Shay rats
# EXPERIMENT SUMMARY: Pylorus ligation (Shay) ulcer test in rats
# Type: in vivo, rat (Sprague-Dawley, male)
# TEST CONDITIONS: Table 3, administered in the duodenum, 100 mg/kg
REPORTED ENDPOINT: ulcer index (means ± S.E.) (mm)
Use mm as the unit, but write only the number.

Problem: Sample Cc1cc(C(=O)O)c(Nc2ccccc2C(=O)O)cc1Cl — what was its ulcer index (means ± S.E.)?
Solution: 0.3

Problem: Sample Cc1cc(Nc2ccccc2C(=O)O)c(C(=O)O)cc1C — what was its ulcer index (means ± S.E.)?
Solution: 0

Problem: Sample Cc1ccc(C(=O)O)c(Nc2ccccc2C(=O)O)c1C — what was its ulcer index (means ± S.E.)?
Solution: 0.4

Problem: Sample Cc1ccc(C(=O)O)c(Nc2cc(Cl)ccc2C(=O)O)c1C — what was its ulcer index (means ± S.E.)?
Solution: 0.7

Problem: Sample COc1ccc(C(=O)O)c(Nc2cc(Cl)ccc2C(=O)O)c1 — what was its ulcer index (means ± S.E.)?
Solution: 0

Problem: Sample Cc1cc(C)c(C(=O)O)c(Nc2cc(Cl)ccc2C(=O)O)c1 — what was its ulcer index (means ± S.E.)?
Solution: 1.0

Problem: Sample Cc1cc(C)c(C(=O)O)c(Nc2ccccc2C(=O)O)c1 — what was its ulcer index (means ± S.E.)?
Solution: 1.4

---

# Tested on: rats with stress-induced ulcer
# EXPERIMENT SUMMARY: Restraint and water immersion stress ulcer test in rats (Takagi et al.)
# Assay type: in vivo, rat (Sprague-Dawley, male)
# TEST CONDITIONS: Rattus norvegicus; Table 4, as in Example 2 (oral), 200 mg/kg
REPORTED ENDPOINT: inhibition in vivo at 200 mg/kg (%)
Use % as the unit, but write only the number.

Problem: Sample COc1cc(Nc2ccccc2C(=O)O)c(C(=O)O)cc1OC [Compound 7] — what was its inhibition in vivo at 200 mg/kg?
Solution: 98.4

Problem: Sample Cc1ccc(C(=O)O)c(Nc2ccccc2C(=O)O)c1C [Compound 14] — what was its inhibition in vivo at 200 mg/kg?
Solution: 90.9

Problem: Sample Cc1ccc(C(=O)O)c(Nc2cc(Cl)ccc2C(=O)O)c1C [Compound 9] — what was its inhibition in vivo at 200 mg/kg?
Solution: 83.4

Problem: Sample Cc1cc(C(=O)O)c(Nc2ccccc2C(=O)O)cc1Cl [Compound 12] — what was its inhibition in vivo at 200 mg/kg?
Solution: 96.7

Problem: Sample Cc1cc(Nc2cc(Cl)ccc2C(=O)O)c(C(=O)O)cc1C [Compound 15] — what was its inhibition in vivo at 200 mg/kg?
Solution: 78.8

Problem: Sample Cc1cc(C)c(C(=O)O)c(Nc2cc(Cl)ccc2C(=O)O)c1 [Compound 13] — what was its inhibition in vivo at 200 mg/kg?
Solution: 70

Problem: Sample COc1ccc(C(=O)O)c(Nc2cc(Cl)ccc2C(=O)O)c1 [Compound 8] — what was its inhibition in vivo at 200 mg/kg?
Solution: 96.7

Problem: Sample Cc1cc(C)c(C(=O)O)c(Nc2ccccc2C(=O)O)c1 [Compound 11] — what was its inhibition in vivo at 200 mg/kg?
Solution: 96.9

Problem: Sample Cc1cc(Nc2ccccc2C(=O)O)c(C(=O)O)cc1C [Compound 10] — what was its inhibition in vivo at 200 mg/kg?
Solution: 90.1

---

# EXPERIMENT SUMMARY: Acute oral toxicity (LD50) in ddY mice
# TEST CONDITIONS: mouse, in vivo, male ddY mice, suspension in 2% aqueous gum arabic
Exercise: state measured LD50 for each of the molecules provided.
Use mg/kg as the unit, but write only the number.

Problem: Sample O=C(O)c1ccccc1Nc1cc(Cl)ccc1C(=O)O [Compound 1] — what was its LD50?
Solution: 2100

Problem: Sample Cc1ccc(C)c(C(=O)O)c1Nc1cc(Cl)ccc1C(=O)O [Compound 4] — what was its LD50?
Solution: 3000

Problem: Sample Cc1c(Cl)ccc(C(=O)O)c1Nc1ccccc1C(=O)O [Compound 5] — what was its LD50?
Solution: 1250

---

# Test system: ulcers developed in Shay rats
# EXPERIMENT SUMMARY: Pylorus ligation (Shay) ulcer test in rats
# Type: in vivo, rat (Sprague-Dawley, male)
# TEST CONDITIONS: Table 1, intra-duodenal, 100 mg/kg, 18 h
# Procedure: Groups of 8-week-old Spraque-Dawley male rats each consisting of 10 members were starved for 48 hours, anaethesized with ether and had their pylorus ligated in accordance with the method of Shay et al. (Gasteroenterology, 5, 43-61, 1945). Immediately thereafter, they were administered the compounds of the present invention intra-duodenally or intraperitoneally. […] The activity of the compounds of the present invention to cure peptic ulcer was measured as in Example 1. […]
Exercise: state measured inhibition for each of the compounds provided.
Use % as the unit, but write only the number.

Problem: Sample Cc1ccc(C(=O)O)c(Nc2ccccc2C(=O)O)c1 — what was its inhibition?
Solution: 92.5

Problem: Sample Cc1c(Cl)ccc(C(=O)O)c1Nc1ccccc1C(=O)O — what was its inhibition?
Solution: 96.6

Problem: Sample Cc1ccc(Nc2cc(Cl)ccc2C(=O)O)c(C(=O)O)c1 — what was its inhibition?
Solution: 92.7

Problem: Sample O=C(O)c1ccc(Cl)cc1Nc1cc(Cl)ccc1C(=O)O — what was its inhibition?
Solution: 78.0

---

# EXPERIMENT SUMMARY: Acute oral toxicity (LD50) in ddY mice
# TEST CONDITIONS: mouse, in vivo, male ddY mice, suspension in 2% aqueous gum arabic
REPORTED ENDPOINT: LD50

Problem: Sample Cc1ccc(C(=O)O)c(Nc2ccccc2C(=O)O)c1 — what was its LD50?
Solution: > 2000 mg/kg

Problem: Sample O=C(O)c1ccc(Cl)cc1Nc1cc(Cl)ccc1C(=O)O — what was its LD50?
Solution: > 2000 mg/kg

Problem: Sample Cc1ccc(Nc2cc(Cl)ccc2C(=O)O)c(C(=O)O)c1 — what was its LD50?
Solution: > 1500 mg/kg
